Biological target: Serine/threonine-protein kinase Chk1 (Homo sapiens)
Sequence (O14757 whole entry): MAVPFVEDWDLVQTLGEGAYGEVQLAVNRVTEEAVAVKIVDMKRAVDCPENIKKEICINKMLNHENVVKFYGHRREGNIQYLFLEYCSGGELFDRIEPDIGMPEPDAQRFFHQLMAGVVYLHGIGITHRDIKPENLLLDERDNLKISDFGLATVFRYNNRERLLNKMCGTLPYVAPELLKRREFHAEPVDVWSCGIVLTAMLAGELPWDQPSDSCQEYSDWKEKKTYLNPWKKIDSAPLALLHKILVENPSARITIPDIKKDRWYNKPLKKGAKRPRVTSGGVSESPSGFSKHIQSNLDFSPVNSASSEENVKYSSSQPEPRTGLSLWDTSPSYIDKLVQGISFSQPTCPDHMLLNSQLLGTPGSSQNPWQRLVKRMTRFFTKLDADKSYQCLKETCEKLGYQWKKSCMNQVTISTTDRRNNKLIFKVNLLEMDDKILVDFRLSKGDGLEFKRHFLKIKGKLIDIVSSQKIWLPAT
Endpoint Name: pIC50
Note on units: pIC50 is unitless, being -log10 of a concentration expressed in mol/L.

Look up and state reported pIC50 for CC(CN(C)C)Oc1cncc(NC(=O)Nc2cccc(Cl)c2)n1 (stereo unspecified)
7.59
